Data origin, for the record: PubChem BioAssay (NCI)

System: A549/ATCC NSCLC
test_protocol: NCI-60 one-dose screen, 48 h
measurement_context: 10 µM unless noted
Experimental: Growth inhibition of the A549/ATCC human Non-Small Cell Lung tumor cell line is measured as a screen for anti-cancer activity. Cells are grown in 96 well plates and exposed to the test compound for 48 hours. Compounds are tested at a single concentration, which is 10^-5 M for most compounds. The reported endpoint is percent growth (GI% or GIPRCNT), where numbers from 0 - 100% represent growth inhibition, and numbers from -100% - 0 represent cell death. […]
The panel holds about 83,000 compounds, 20% with a hit somewhere; the sample as a whole holds those more often. Active and inactive are the calls of the source. The calls were made as follows: active = growth percent below 10; inactive = the rest.
Pick from active, inactive when you respond.

Study these solved cases before continuing.
ClCCN(CCCl)c1ccc(OCc2ccccc2)cc1 : inactive
N#CC1C(C#N)C2CCC1C1C2N1c1ccccc1 (centres undefined) : inactive
CCCOC(=O)N[C@H]1CCc2c(Br)c(OC)c(OC)c(OC)c2-c2ccc(SC)c(=O)cc21 : inactive
CC12CCC(O)CC1=CCC1C2CCC2(C)C(O)CCC12 (centres undefined) : inactive

Qu. Could you kindly confirm the outcome this assay logged for `COc1cc2c(cc1OCCCCn1c(-c3cccs3)nc3ccccc31)N=C[C@@H]1CCCN1C2=O` ?
Ans. active

Qu. Could you kindly confirm the outcome this assay logged for `CC1=C(CCCOC(=O)[C@H](N)CC(C)C)C2=C(C)C3(CC3)[C@@](C)(O)C(=O)C2=C1` ?
Ans. active

Qu. Could you kindly confirm the outcome this assay logged for `COc1cc2ncnc(Nc3ccc(F)c(Cl)c3)c2cc1OCC(=O)N1CCN(C)CC1` ?
Ans. inactive
